# Tested on: HOP-92 NSCLC
# Protocol: NCI-60 one-dose screen, 48 h (100 = growth as untreated, 0 = no growth, -100 = all killed)
# Condition info: 10 µM unless noted
The panel holds about 83,000 compounds, 20% with a hit somewhere; the sample as a whole holds those more often. Calls of active or inactive are those of the source. How the source made its calls: active means growth percent below 10; inactive means the rest.
Below, each of the compounds is paired with its reported growth value.
Parameter: growth

[
  {
    "Compound": "O=C(c1nc2ccccc2[nH]1)C1C(c2ccc([N+](=O)[O-])cc2)C2CC3CCCCC3N2[C@@]12C(=O)Nc1cc(Cl)ccc12 (stereo not given in full)",
    "Tested system": "HOP-92 NSCLC",
    "Result": "20.1% (inactive)"
  },
  {
    "Compound": "O=c1oc2ccc(Cl)cc2c(=O)n1-c1ccc(Cl)cc1F",
    "Tested system": "HOP-92 NSCLC",
    "Result": "-12.9% (active)"
  },
  {
    "Compound": "CSc1nc2c(c(=O)[nH]1)N=C1c3ccccc3C(=O)C1C(c1ccccc1)N2 (stereo not given)",
    "Tested system": "HOP-92 NSCLC",
    "Result": "59.5% (inactive)"
  },
  {
    "Compound": "Cc1ccc(Nc2nc(N)c3ccccc3n2)cc1Cl",
    "Tested system": "HOP-92 NSCLC",
    "Result": "54.3% (inactive)"
  },
  {
    "Compound": "CCOC(=O)c1sc(-c2ccc(OS(=O)(=O)c3ccccc3[N+](=O)[O-])c(C=O)c2)nc1C",
    "Tested system": "HOP-92 NSCLC",
    "Result": "65.6% (inactive)"
  },
  {
    "Compound": "COc1cc(C#N)cc2[nH]c(=O)oc12",
    "Tested system": "HOP-92 NSCLC",
    "Result": "95.5% (inactive)"
  },
  {
    "Compound": "O=C(O)CCCN1C(=O)C2C3CCC(C3)C2C1=O (stereo not given)",
    "Tested system": "HOP-92 NSCLC",
    "Result": "107% (inactive)"
  },
  {
    "Compound": "O=C(/C=C/c1ccccc1)c1ccc(Nc2nc(NCCO)nc(Nc3ccc(Cl)cc3)n2)cc1",
    "Tested system": "HOP-92 NSCLC",
    "Result": "96.2% (inactive)"
  },
  {
    "Compound": "O=C(Nc1ccc(N2CCNCC2)cc1)c1[nH]ncc1Nc1ncnc2sc3c(c12)CCC3",
    "Tested system": "HOP-92 NSCLC",
    "Result": "-56.7% (active)"
  },
  {
    "Compound": "Nc1cccc(Nc2cc(S(=O)(=O)O)c(N)c3c2C(=O)c2ccccc2C3=O)c1",
    "Tested system": "HOP-92 NSCLC",
    "Result": "132% (inactive)"
  },
  {
    "Compound": "Cc1nc(Nc2ccccn2)sc1C(=O)/C=C/c1ccc(Cl)cc1",
    "Tested system": "HOP-92 NSCLC",
    "Result": "31.8% (inactive)"
  },
  {
    "Compound": "CCOC(=O)C1=C(C)N=c2s/c(=C\\c3ccccc3O)c(=O)n2C1c1ccc(OC)c2ccccc12 (stereo not given)",
    "Tested system": "HOP-92 NSCLC",
    "Result": "4.78% (active)"
  },
  {
    "Compound": "COc1c(B(O)O)cccc1-c1nc2ccc3n[nH]c(F)c3c2c2c1CCCC2",
    "Tested system": "HOP-92 NSCLC",
    "Result": "78.6% (inactive)"
  },
  {
    "Compound": "COc1ccc(Br)c(/C=C2\\SC(=Nc3ccc(O)cc3)NC2=O)c1",
    "Tested system": "HOP-92 NSCLC",
    "Result": "83.2% (inactive)"
  },
  {
    "Compound": "CC(=O)c1ccc(Nc2nc(NCCO)nc(Nc3ccc(Cl)cc3)n2)cc1",
    "Tested system": "HOP-92 NSCLC",
    "Result": "86.4% (inactive)"
  },
  {
    "Compound": "CCN(CC)c1cc(C)c2cc(NC(=O)c3cccc(OC)c3)ccc2n1",
    "Tested system": "HOP-92 NSCLC",
    "Result": "29.1% (inactive)"
  },
  {
    "Compound": "COc1c(B(O)O)cccc1-c1nc2ccc3[nH]ncc3c2c2c1C1CCC2C1 (stereo not given)",
    "Tested system": "HOP-92 NSCLC",
    "Result": "108% (inactive)"
  },
  {
    "Compound": "COc1cc(C(C)n2cc(-c3ccccc3)nn2)ccc1OC1CCCC1 (stereo not given)",
    "Tested system": "HOP-92 NSCLC",
    "Result": "54.7% (inactive)"
  },
  {
    "Compound": "COC(=O)/C(=C\\c1c(C)[nH]c2ccccc12)S(=O)(=O)c1ccccc1",
    "Tested system": "HOP-92 NSCLC",
    "Result": "21.5% (inactive)"
  },
  {
    "Compound": "Oc1[nH]c2ccccc2c1N=Nc1nnc2n1N=C(c1ccccc1)CS2",
    "Tested system": "HOP-92 NSCLC",
    "Result": "64.7% (inactive)"
  },
  {
    "Compound": "CCOC(=O)c1cc2c(n1Cc1ccccc1OC)-c1oncc1CCC2",
    "Tested system": "HOP-92 NSCLC",
    "Result": "57% (inactive)"
  },
  {
    "Compound": "CCN1C(=O)N(CC)C2C1NC(=S)N2/N=C/C=C/c1ccccc1OC (stereo not given)",
    "Tested system": "HOP-92 NSCLC",
    "Result": "18.4% (inactive)"
  },
  {
    "Compound": "CCCSC1=NC2C(N(CC)C(=O)N2CC)N1/N=C/C=C/c1ccccc1[N+](=O)[O-] (stereo not given)",
    "Tested system": "HOP-92 NSCLC",
    "Result": "102% (inactive)"
  },
  {
    "Compound": "CN1C(=O)N(C)C2(c3ccccc3)n3c(s/c(=C\\c4ccccc4)c3=O)=NNC12c1ccccc1 (stereo not given)",
    "Tested system": "HOP-92 NSCLC",
    "Result": "89.5% (inactive)"
  },
  {
    "Compound": "Cc1cc(Br)c(N)c(Br)c1",
    "Tested system": "HOP-92 NSCLC",
    "Result": "106% (inactive)"
  },
  {
    "Compound": "CC[C@]1(O)C[C@@H]2CN(CCc3c([nH]c4ccccc34)[C@@](C(=O)OC)(c3cc4c(cc3OC)N(C)[C@H]3[C@@](O)(C(=O)OC)[C@H](OC(C)=O)[C@]5(CC)C=CCN6CC[C@]43[C@@H]65)C2)C1",
    "Tested system": "HOP-92 NSCLC",
    "Result": "-9.28% (active)"
  },
  {
    "Compound": "CN=c1ccc2nc3ccc(N)cc3sc-2c1",
    "Tested system": "HOP-92 NSCLC",
    "Result": "53.5% (inactive)"
  },
  {
    "Compound": "COc1ccc(-c2nsc3c2NC(=O)CC3c2cccc(OC)c2)cc1 (stereo not given)",
    "Tested system": "HOP-92 NSCLC",
    "Result": "49.9% (inactive)"
  },
  {
    "Compound": "NC(CCc1nc2ccccc2c(=O)[nH]1)C(=O)O (stereo not given)",
    "Tested system": "HOP-92 NSCLC",
    "Result": "108% (inactive)"
  },
  {
    "Compound": "OC(CNC1CCCCC1)Cn1c2ccc(I)cc2c2cc(I)ccc21 (stereo not given)",
    "Tested system": "HOP-92 NSCLC",
    "Result": "-0.53% (active)"
  }
]
